TARGET OR SYSTEM: guinea pig ileum (Cavia porcellus, UniProt A0A286Y074)
Sequence (A0A286Y074 1-421): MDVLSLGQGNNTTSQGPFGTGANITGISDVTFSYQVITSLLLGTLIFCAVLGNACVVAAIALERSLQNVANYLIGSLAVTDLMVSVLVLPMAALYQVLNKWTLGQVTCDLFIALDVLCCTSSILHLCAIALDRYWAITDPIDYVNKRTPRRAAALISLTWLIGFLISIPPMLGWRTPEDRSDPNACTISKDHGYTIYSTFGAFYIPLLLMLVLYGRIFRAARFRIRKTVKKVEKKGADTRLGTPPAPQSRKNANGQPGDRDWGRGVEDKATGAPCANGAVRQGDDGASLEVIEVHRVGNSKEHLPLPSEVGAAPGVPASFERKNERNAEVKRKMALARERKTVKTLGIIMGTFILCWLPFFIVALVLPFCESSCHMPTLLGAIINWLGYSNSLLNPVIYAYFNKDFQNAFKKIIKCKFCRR
EXPERIMENT DESCRIPTION: Single shock stimulation of guinea pig ileum: inhibition of longitudinal muscle contractions, or antagonism of the inhibitory action of 8-OH DPAT
RUN PARAMETERS: read-out: Single Shock stimulation of guinea pig ileum ED50 for inhibition of contractions; transmural single shock stimulation (0.1 Hz)
VALUE KIND: EC50 (nM)
Answers are plain numbers, in nM.

## Input Return reported EC50; argument: Cc1ccc2c(c1O)-c1cccc3c1[C@@H](C2)N(C)CC3 [(R), (R)-11-hydroxy-10-methylaporphine, reference compound]
## Output 50

----------
TARGET OR SYSTEM: 5-HT1A sites (Rattus norvegicus)
Sequence (P19327 1-422): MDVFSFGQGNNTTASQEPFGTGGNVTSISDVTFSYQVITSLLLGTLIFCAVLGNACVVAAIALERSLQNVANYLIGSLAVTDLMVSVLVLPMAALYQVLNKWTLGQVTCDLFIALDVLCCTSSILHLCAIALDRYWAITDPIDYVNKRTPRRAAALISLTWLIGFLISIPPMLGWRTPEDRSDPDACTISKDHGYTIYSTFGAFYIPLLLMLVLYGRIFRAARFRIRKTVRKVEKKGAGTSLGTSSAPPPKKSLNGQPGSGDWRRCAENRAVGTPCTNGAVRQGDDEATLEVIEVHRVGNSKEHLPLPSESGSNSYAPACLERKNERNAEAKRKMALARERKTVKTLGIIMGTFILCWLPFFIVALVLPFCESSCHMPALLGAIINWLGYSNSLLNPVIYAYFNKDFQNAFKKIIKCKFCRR
Record form. Attribute: Ki. Fill in for each entry.
Numbers only, in nM.

Cc1ccc2c(c1O)-c1cccc3c1[C@@H](C2)N(C)CC3 [(R), (R)-11-hydroxy-10-methylaporphine, reference compound] :: 3.1

// below: Ki requested for another molecule
## Input Return reported Ki; argument: Cc1ccc2c(c1O)-c1cccc3c1[C@H](C2)N(C)CC3.Cl [(S), hydrochloride]
## Output 39

----------
TARGET OR SYSTEM: guinea pig ileum (Cavia porcellus)
EXPERIMENT DESCRIPTION: Single shock stimulation of guinea pig ileum: inhibition of longitudinal muscle contractions, or antagonism of the inhibitory action of 8-OH DPAT
RUN PARAMETERS: read-out: ED50 for antagonism of inhibition of contraction by 8-OH DPAT; single shock stimulation of guinea pig ileum; concentration of 8-OH-DPAT 0.06 μM
VALUE KIND: pIC50
Answers are plain numbers, as −log10 of the molar value.

## Input guinea pig ileum (Cavia porcellus) / pIC50 / Cc1ccc2c(c1O)-c1cccc3c1[C@H](C2)N(C)CC3.Cl [(S), hydrochloride] : value?
## Output 7.52
